# System: Wnt signaling
# Assay Method Text: TopFlash reporter gene bioassay in SW480 cells
# Format: cell-based
# Run Parameters: Homo sapiens, SW480, TopFlash reporter gene assay, inhibition of Wnt signaling; read-out: RGA, IC50 (μM) TopF
Entries whose IC50 is below 2 µM take MET; entries at or above 2 µM take NOT MET.

Request: Given the entry `C=CCN1CC(=O)N2[C@@H](Cc3ccc(O)cc3)C(=O)N(Cc3csc4ccc(NC(N)=O)cc34)C[C@@H]2N1C(=O)NCc1ccccc1` , would its reported IC50 be below 2 µM?
Result: NOT MET

Request: Also C=CCN1CC(=O)N2[C@@H](Cc3ccc4[nH]ncc4c3)C(=O)N(Cc3cccc4scnc34)C[C@@H]2N1C(=O)NCc1ccccc1 (racemic) ?
Result: NOT MET

More entries:
Request: hey, is IC50 for `C=CCN1CC(=O)N2[C@@H](Cc3ccc(O)cc3)C(=O)N(Cc3cccc(NS(C)(=O)=O)c3)C[C@@H]2N1C(=O)NCc1ccccc1` lower than 2 µM or not?
Result: NOT MET

Request: Same thing, different compound: `C=CCN1CC(=O)N2[C@@H](Cc3ccc(O)cc3)C(=O)N(Cc3csc4c([N+](=O)[O-])cccc34)C[C@@H]2N1C(=O)NCc1ccccc1`
Result: MET

Request: Could you do the same for `C=CCN1CC(=O)N2[C@@H](Cc3ccc(O)cc3)C(=O)N(CC3=CS(=O)(=O)c4ccccc43)C[C@@H]2N1C(=O)NCc1ccccc1` , please?
Result: NOT MET

Request: Next compound up: `C=CCN1CC(=O)N2[C@@H](Cc3ccc(O)cc3)C(=O)N(Cc3cccc(-c4ccc(OC)cc4)n3)C[C@@H]2N1C(=O)NCc1ccccc1`
Result: MET

Request: Moving on to the next compound: `C=CCN1CC(=O)N2[C@@H](Cc3ccc(O)cc3)C(=O)N(Cc3ccc(F)c4scnc34)C[C@@H]2N1C(=O)NCc1ccc(OC)c(OC)c1`
Result: NOT MET

Request: Follow-up item: `C=CCN1CC(=O)N2[C@@H](Cc3ccc(O)cc3)C(=O)N(Cc3cccc4c3oc3ccccc34)C[C@@H]2N1C(=O)NCc1ccccc1`
Result: MET

Request: // next record `C=CCN1CC(=O)N2[C@@H](Cc3ccc(O)cc3)C(=O)N(Cc3cccc(OC)c3OCCN3CCCCC3)C[C@@H]2N1C(=O)NCc1ccccc1`
Result: NOT MET

Request: What do we get for `C=CCN1CC(=O)N2[C@@H](Cc3ccc(O)cc3)C(=O)N(Cc3ccccc3N(C)Cc3ccccc3)C[C@@H]2N1C(=O)NCc1ccccc1` ?
Result: MET

Request: // repeat for `C=CCN1CC(=O)N2[C@@H](Cc3ccc(O)cc3)C(=O)N(Cc3c[nH]c4ccc(OC)cc34)C[C@@H]2N1C(=O)NCc1ccccc1` and report
Result: NOT MET

Request: Also `C=CCN1CC(=O)N2[C@@H](Cc3ccc(OS(N)(=O)=O)cc3)C(=O)N(Cc3cccc(C(N)=O)c3)C[C@@H]2N1C(=O)NCc1ccccc1` , if possible.
Result: NOT MET

----------
IC50 values, listed per item
# Tested on: Wnt signaling
# Assay Method Text: TopFlash reporter gene bioassay in SW480 cells
# Assay type: cell-based
# Run Parameters: Homo sapiens, SW480, TopFlash reporter gene assay, inhibition of Wnt signaling; read-out: RGA, IC50 (μM) TopF
Number only, in µM; omit the unit.

Request: Quick check: IC50 of `C=CCN1CC(=O)N2[C@@H](Cc3ccc(O)cc3)C(=O)N(Cc3csc4cc(NCCC)ccc34)C[C@@H]2N1C(=O)NCc1ccccc1` ?
Result: 0.84

Request: Would you mind doing `C=CCN1CC(=O)N2[C@@H](Cc3ccc(O)cc3)C(=O)N(Cc3cccc(C(=O)N(C)C)n3)C[C@@H]2N1C(=O)NCc1ccccc1` as well?
Result: 21.8

Kindly consider the entry below.
Request: Entry under review: `C=CCN1CC(=O)N2[C@@H](Cc3ccc(O)cc3)C(=O)N(Cc3cccc(C(=O)OC)c3)C[C@@H]2N1C(=O)NCc1ccccc1` . Reported IC50?
Result: 0.69

Origin of values: patent US8080657B2
